These data points were gathered from the supplement of paper PMC9170038.

# System: MS2 coat protein
# ASSAY_NOTES: apparent KD of MS2 coat protein; designed switch direction (-1 OFF switch, 1 ON switch): 1; higher = weaker reporter binding
# RUN_PARAMETERS: Eterna round: R95; input ligand: none
Is apparent KD of MS2 coat protein at least 40 nM? Then Fulfilled. If not, Not fulfilled.

These recorded examples may help you get a feel for the data.
>>> group("AUAAGUUUGAUGCUCGUCUCUCCGUACAGACAUGAGGAUCACCCAUGUAGUCGGGAAGUAGCCCGGCCUGUAUGGCC [Magequ] (puzzle: Sensor for hsa-mir-208a)")
"Not fulfilled"
>>> group("UCUUGGUUUUUGCUCGUUUUUUGUGUUGAACAUGAGGAUCACCCAUGUAUUGUACAAUCCGGUUUGAUGAUGGUCCA [JMF 47] (puzzle: Sensor for hsa-mir-208a)")
"Fulfilled"
>>> group("AUGCCCGUAGCACAGGAUAUCCGAGGCAAAACAUGAGGAUCACCCAUGUCAAACGAAAAUCCGAAGGAGAAGGGUGAACGGGCUC [Xeisquorat] (puzzle: Same State 2)")
"Not fulfilled"
>>> group("GUAAAACAUGAGGAUCACCCAUGUAAUAAUAUGGGAGGAUAUGCGAAUUUAAUUAUUUAAGCAGAAGGCCUAAAUG [Mat - Same State 1 - D99] (puzzle: Same State 1)")
"Fulfilled"
>>> group("GUUAUACAUGAGGAUCACCCAUGUCAAUGUAGUCGAGGAUAUGGGCAGCUAUGAGGCGUACUAGAAGGCGAAGAGG [JL-ss1-3.11 ViennaUCT mod] (puzzle: Same State 1)")
"Fulfilled"

Input: Does apparent KD of MS2 coat protein meet or surpass 40 nM for UAGUACAUGCUUUUUGUCCGUCUUAGAUAACAUGAGGAUCACCCAUGUAAGGUGAAAGUUAUAUAGUUUAGGAAGAU [JR_SHM208A_Sub056] (puzzle: Sensor for hsa-mir-208a) ?
Output: Fulfilled

Input: Can AAGUUAAGCUUUUUGUUCUGCCUAUUCUAACAUGAGGAUCACCCAUGUAGUCAGACGACUGCGUGUGUAGUUGAGAU [JR_SHM208A_Sub029] (puzzle: Sensor for hsa-mir-208a) be said to have apparent KD of MS2 coat protein at or above 40 nM?
Output: Fulfilled

Input: Threshold query (apparent KD of MS2 coat protein >= 40 nM) on AACAAUCUAUCUGAGGAUAUCAUGAAAUAAACAUGAGGAUCACCCAUGUGCAGGAAAACUGCAUAUGAGAAGGCAGAUAGAUUGU [salish99_ss2_r3_058] (puzzle: Same State 2)
Output: Fulfilled

---

# System: MS2 coat protein
# ASSAY_NOTES: apparent KD of MS2 coat protein; designed switch direction (-1 OFF switch, 1 ON switch): -1; higher = weaker reporter binding
# RUN_PARAMETERS: input ligand: none
Recorded apparent KD of MS2 coat protein values for a group of sequences are listed next.
I only need the number, in µM, no unit after it.

# count of solved cases: 2
>>> experimental_result("UGUGCUCUAGGAUAUGCGUAAGCUGAUACGUCAGCAGGUCUACAUGAGGAUCACCCAUGUAGAAGGAGAGUACU [jl-ex2-4.00] (Eterna round: R97, puzzle: Exclusion 2)")
0.0208
>>> experimental_result("UGAUCUAGCGGAGGAUAUACAUGAGGAUCACCCAUGUAGUUGUCUGUACCGUAGUGCAGACUUGUGUAGAAGGCCGCUAGAUCU [JL ENG2 3.62] (Eterna round: R96, puzzle: Exclusion NG 2)")
0.0143

Input: What value of apparent KD of MS2 coat protein has been reported for the following sequence? ACAUGAGGAUCACCCAUGUCCGUCUGAUCUGUCUCGGCUGUCGAGGAUAUAGCCCGGUAUCCGCGCUAGAAGGUGGGAGUCGGC [Aenatbe mod 99] (Eterna round: R96, puzzle: Exclusion NG 3)
Output: 0.0357
